Test system: HCI13 (cells of an ER-positive luminal breast cancer xenograft);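 note: PDX cells carrying CMV promoter-driven luciferase, viability read as total photon flux per second by IVIS imaging following D-luciferin, vehicle control 0.1% DMSO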
Assay: cell viability (% of vehicle); higher = less cytotoxic
Details: 10 µM; 72 h
test-readout: cell viability

compound: O=C([O-])C(O)C(O)C(O)C(O)C(O)CO.O=C([O-])C(O)C(O)C(O)C(O)C(O)CO.[Ca+2] (stereo unspecified) [Calcium Gluceptate]
measured-value: 110

compound: OCC(O)CN1CCN(c2ccccc2)CC1 (stereo unspecified)
measured-value: 66

compound: Cc1ccsc1C(=CCCN1CCC[C@@H](C(=O)O)C1)c1sccc1C [Tiagabine]
measured-value: 96.9

compound: CCC(C(C)O)n1ncn(-c2ccc(N3CCN(c4ccc(OCC5COC(Cn6cncn6)(c6ccc(F)cc6F)C5)cc4)CC3)cc2)c1=O (stereo unspecified)
measured-value: 79.9

compound: COCCOC(=O)C1=C(C)NC(C)=C(C(=O)OCC=Cc2ccccc2)C1c1cccc([N+](=O)[O-])c1 (stereo unspecified)
measured-value: 66.6

compound: CC(=O)OC1(C(C)=O)CCC2C3CCC4=CC(=O)CCC4=C3C(c3ccc(N(C)C)cc3)CC21C (stereo unspecified) [Ulipristal acetate]
measured-value: 92.8

compound: CCCCCCCCOc1ccccc1C(=O)Nc1ccc(C(=O)OCC[N+](C)(CC)CC)cc1.[Br-] [Otilonium Bromide]
measured-value: 42.9

compound: O=c1[nH]c(=O)n(C2CCCO2)cc1F (stereo unspecified)
measured-value: 89.2

compound: Cc1[nH]c2ccccc2c1CCNCc1ccc(C=CC(=O)NO)cc1
measured-value: 45

compound: COc1cc2c(Oc3ccc4[nH]c(C)cc4c3F)ncnc2cc1OCCCN1CCCC1
measured-value: 57.7

compound: CCCCNC(=O)NS(=O)(=O)c1ccc(C)cc1 [Tolbutamide]
measured-value: 88.9

compound: CN(C)CCC(c1ccc(Br)cc1)c1ccccn1.O=C(O)C=CC(=O)O (stereo unspecified) [Brompheniramine hydrogen maleate]
measured-value: 142

compound: Clc1ccc2c(c1)CCc1cccnc1C2=C1CCNCC1
measured-value: 128

compound: CN(C)CCOC(c1ccccc1)c1ccccc1.Cl [Diphenhydramine HCl]
measured-value: 74

compound: CCN1CCCC1CNC(=O)c1cc(S(N)(=O)=O)ccc1OC (stereo unspecified) [Levosulpiride]
measured-value: 77.9

compound: CN(CC/C=C1C2=CC=CC=C2C=CC3=CC=CC=C3\1)C.Cl [Cyclobenzaprine HCl]
measured-value: 131
